Source listed as PubChem BioAssay AID1053144.

# protocol-text: Wnt/beta-catenin signaling activators, dose response, cell-based, iPS-derived NPC, luciferase, Wnt3a, cherry-pick (AID 1053144);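 also: Wnt3a stimulus is conditioned medium from Wnt3a-transfected mouse L cells at 5% in well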
# study-conditions: NPC TCF/LEF luciferase reporter, Wnt3a EC25, 24 h; series mostly up to 26 µM
About 160 (4.7%) of roughly 3,400 compounds were called active. A selection follows. Results with a measured potency or affinity are listed apart.
property: activation

Clc1ccc(-c2nc3n(n2)Cc2ccccc2-3)cc1
inactive
O=C(Nc1nc(-c2nc3ccccc3s2)cs1)C1CC1
inactive
Cc1ccc(S(=O)(=O)N2CCCC(C(=O)Nc3ccc(NC(=O)c4ccccn4)cc3)C2)cc1 (configuration not stated)
inactive
Cc1ccc(SCC(=O)NC(=O)NCCC(C)C)c(C)c1
inactive
O=C(Nc1ccc2c(c1)CCC2)c1cccs1
inactive
Nc1c(C(=O)c2ccccc2)oc2ccc(Br)cc12
inactive
c1ccc(-c2nnc(-c3ccccn3)nn2)nc1
inactive
O=C(CSc1nc2ccccc2c(=O)n1NC(=O)c1ccccc1)c1ccc(Cl)cc1
inactive
O=C(c1cc(-c2cccc(O)c2)on1)N1CCCCC1
inactive
COc1ccc(C(=O)c2oc3ccc(OC)cc3c2N)cc1
inactive
O=C(Nc1cccc(F)c1)Nc1ccc2c(c1)CCC2
inactive
O=c1c2ccccc2nc2c3ccccc3c(NCc3ccccn3)nn12
inactive
